Consider the following molecules; for each one, report its log10(solubility).
- EXPERIMENT: Compound solubility in water
- Assay type: physicochemical
- RUN PARAMETERS: read-out: Solubility in H2O
Would you kindly interpret these values as log10 of solubility expressed in µM?

IN: // Input: Cn1c(=O)oc2cc(C3CCN(C(=O)NCCCc4ccccc4)C(C)(C)C3)ccc21 (stereo not shown) . Output its log10(solubility) only.
OUT: 0.76

IN: Identify measured log10(solubility) corresponding to `CN1CCC(n2c(=O)oc3cc(C4CCN(C(=O)NCCCCc5ccccc5)CC4)ccc32)CC1`
OUT: 1.00

IN: Report log10(solubility), nothing else, for this molecule: Cn1c(=O)oc2cc(C3CCCCN3C(=O)NCCCCc3ccccc3)ccc21 (stereo not shown)
OUT: 1.48

IN: For the molecule CCCCCNC(=O)N1CCC(c2ccc3c(c2)oc(=O)n3C)CC1(C)C (stereo not shown) , give its reported log10(solubility).
OUT: 0.23

IN: Write down log10(solubility) measured for item C[C@H]1CC(c2ccc3c(c2)oc(=O)n3C)CCN1C(=O)NCCc1ccccc1 (stereo partly shown)
OUT: 1.75

IN: Read the entry CC1CN(c2ccc3c(c2)oc(=O)n3C)CC(C)N1C(=O)NCCCCc1ccccc1 (stereo not shown) and write its reported log10(solubility).
OUT: -0.30

IN: Check the records and state log10(solubility) for Cn1c(=O)oc2cc(C3CC4CCC(C3)N4C(=O)NCCCCc3ccccc3)ccc21 (stereo not shown)
OUT: 0.51

###

- TARGET OF ASSAY: Human acid ceramidase (hACR) (Homo sapiens, UniProt Q13510)
- Construct: lysates of cells overexpressing acid ceramidase
- Sequence (Q13510 22-395): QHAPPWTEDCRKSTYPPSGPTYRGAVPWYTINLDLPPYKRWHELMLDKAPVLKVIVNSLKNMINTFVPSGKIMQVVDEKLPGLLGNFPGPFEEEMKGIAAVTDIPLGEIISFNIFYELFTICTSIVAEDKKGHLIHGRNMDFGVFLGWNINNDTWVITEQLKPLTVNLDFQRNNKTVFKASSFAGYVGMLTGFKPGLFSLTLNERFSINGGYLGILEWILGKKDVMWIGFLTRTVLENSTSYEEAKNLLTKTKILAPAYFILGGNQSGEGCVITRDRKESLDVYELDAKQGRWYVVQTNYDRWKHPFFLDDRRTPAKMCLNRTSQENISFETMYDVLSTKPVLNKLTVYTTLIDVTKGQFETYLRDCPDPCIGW
- EXPERIMENT: Acid ceramidase biochemical fluorescent assay (cell lysates overexpressing acid ceramidase, substrate Rbm14-12)
- RUN PARAMETERS: 10 μg lysate protein, 1 hr preincubation at RT, pH 4.5, Rbm14-12 6.3 μM
pIC50: −log10 of the molar value.
Please go through the items and note down their pIC50.

IN: Complete the entry with pIC50 for `Cn1c(=O)oc2cc(N3CC4(COC4)N(C(=O)NCCCCc4ccccc4)CC3=O)ccc21`
OUT: 6.00 to 6.70

IN: Give recorded pIC50. `Cn1c(=O)oc2cc(N3CCN(C(=O)NCCCCc4ccccc4)CC3=O)ccc21`
OUT: < 6.00

IN: Give pIC50 for the following molecule: `Cn1c(=O)oc2cc(N3CCN(C(=O)NCCCCC4CC4)C(C)(C)C3)ccc21`
OUT: > 6.70

IN: Output measured pIC50 for this item: Cn1c(=O)oc2cc(C3CCN(C(=O)NCCCCc4ccccc4)C4(COC4)C3)ccc21 (centres unmarked)
OUT: < 6.00

IN: Specify measured pIC50 for C[C@H]1CC(c2ccc3c(c2)oc(=O)n3C)CCN1C(=O)NCCc1ccccc1 (some centres unmarked) .
OUT: 6.00 to 6.70

IN: Return value of pIC50 for input Cn1c(=O)oc2cc(C3CCN(C(=O)NCCCCc4ccccc4)C(C)(C)C3)ccc21 (centres unmarked) , no commentary.
OUT: > 6.70

IN: Check the records and state pIC50 for Cn1c(=O)oc2cc(C3CCCN(C(=O)NCCCCc4ccccc4)C3)ccc21 (centres unmarked)
OUT: < 6.00

IN: Please report pIC50 for the following molecule: `CCOCCNC(=O)N1CCN(c2ccc3c(c2)oc(=O)n3C)CC1(C)C`
OUT: < 6.00
